Reference source: patent US11377442B2

target: NR2F6 (Homo sapiens); construct: expressed in transfected cells; also transient transfection; test: NR2F6 agonist screening, Firefly signal cmpd/DMSO; type: cell-based; settings: C11 analogs follow set (Tables 2-10), repeat 2
metric: Firefly, cmpd/DMSO repeat 2

O=c1oc2ccc(Cl)cc2cc1S(=O)(=O)c1ccccc1F	6.5
Cc1cccc(NC(=O)c2ccc3oc(=O)c(S(=O)(=O)c4ccc(Cl)cc4)cc3c2)c1	6.9
Cc1ccc(S(=O)(=O)c2cc3cc(Cl)ccc3oc2=O)cc1Cl	8.7
COc1ccc(NC(=O)c2ccc3oc(=O)c(S(=O)(=O)c4ccccc4)cc3c2)cc1	8.2

###

target: NR2F6 (Homo sapiens, UniProt P10588); construct: expressed in transfected cells; also transient transfection; test: NR2F6 agonist screening, Firefly signal cmpd/DMSO; format: cell-based; conditions: F4; 10% FBS; 0.5 uM
metric: Firefly, F4, 10% FBS, cmpd/DMSO (mean)

COCCN[C@H]1CS(=O)(=O)C[C@@H]1S(=O)(=O)c1ccc(Cl)cc1	0.4
CC(=O)N1CCN([C@H]2CS(=O)(=O)C[C@@H]2S(=O)(=O)c2ccc(F)c(C)c2)CC1	1.1
COCCCN[C@H]1CS(=O)(=O)C[C@@H]1S(=O)(=O)c1ccc(Cl)cc1	1.4
O=S1(=O)C[C@H](NC2CCCCC2)[C@@H](S(=O)(=O)c2ccccc2)C1	1.6
CCCCN[C@H]1CS(=O)(=O)C[C@@H]1S(=O)(=O)c1ccc(Cl)cc1	1.5
CC(C)CN[C@H]1CS(=O)(=O)C[C@@H]1S(=O)(=O)c1ccc(Cl)cc1	1.0
O=S1(=O)C[C@H](NCCCc2ccccc2)[C@@H](S(=O)(=O)c2ccc(Cl)cc2)C1	0.9
CC(C)N[C@H]1CS(=O)(=O)C[C@@H]1S(=O)(=O)c1ccc(Cl)cc1	1.2

###

target: NR2F6 (Homo sapiens); construct: expressed in transfected cells; also transient transfection; assay: NR2F6 agonist screening, Firefly signal cmpd/DMSO; type: cell-based; conditions: 1% FBS; 10 uM
metric: F4, Firefly/Renilla for S/B(F4) > 3

Consider the following illustrative entries.
O=S1(=O)C[C@H](N2CCCCC2)[C@@H](S(=O)(=O)c2ccc(Cl)cc2)C1 [Compound D123]	2.7
O=S1(=O)C[C@H](N2CCCCC2)[C@@H](S(=O)(=O)c2cccs2)C1 [Compound D105]	2.5

A: CCC(C)N[C@H]1CS(=O)(=O)C[C@@H]1S(=O)(=O)c1ccc(Cl)cc1 (stereo partly shown) [Compound D121]
B: CCCN[C@H]1CS(=O)(=O)C[C@@H]1S(=O)(=O)c1ccc(Cl)cc1 [Compound D117]
Between the entries labelled A and B , which has a larger F4, Firefly/Renilla for S/B(F4) > 3 value on record? Could you answer with the label of the item you picked? B

###

Target: NR2F6 (Homo sapiens, UniProt P10588)
Construct: expressed in transfected cells; also transient transfection
Sequence (P10588 1-404): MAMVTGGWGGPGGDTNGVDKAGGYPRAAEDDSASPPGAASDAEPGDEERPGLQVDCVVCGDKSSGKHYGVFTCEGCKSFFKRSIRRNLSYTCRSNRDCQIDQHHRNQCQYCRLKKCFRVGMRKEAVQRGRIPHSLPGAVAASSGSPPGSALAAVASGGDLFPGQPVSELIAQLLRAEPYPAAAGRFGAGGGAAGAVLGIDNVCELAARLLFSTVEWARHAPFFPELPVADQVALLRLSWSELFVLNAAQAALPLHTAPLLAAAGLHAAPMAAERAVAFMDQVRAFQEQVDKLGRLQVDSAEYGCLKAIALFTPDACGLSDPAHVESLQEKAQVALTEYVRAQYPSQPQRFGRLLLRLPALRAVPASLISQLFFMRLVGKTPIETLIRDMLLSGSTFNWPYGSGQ
Experiment: NR2F6 agonist screening, Firefly signal cmpd/DMSO
Format: cell-based
Details: F4; 1% FBS; 10 uM
metric: Firefly, F4, 1% FBS, cmpd/DMSO (mean)

I: CCCCN[C@H]1CS(=O)(=O)C[C@@H]1S(=O)(=O)c1ccc(Cl)cc1 [Compound D119]
II: C[C@@H]1C[C@H](C)CN([C@H]2CS(=O)(=O)C[C@@H]2S(=O)(=O)c2ccccc2)C1 [Compound D112]
Between I and II , whose recorded Firefly, F4, 1% FBS, cmpd/DMSO (mean) is greater? The response must carry the label of the picked entry. I

1: Cc1cc(S(=O)(=O)[C@H]2CS(=O)(=O)C[C@@H]2NCC2CCCO2)ccc1F (some centres unmarked) [Compound D115]
2: CC1CCN([C@H]2CS(=O)(=O)C[C@@H]2S(=O)(=O)c2cccs2)CC1 [Compound D106]
Hi there, can you help? I need to know whether 1 or 2 has lower measured Firefly, F4, 1% FBS, cmpd/DMSO (mean). Please identify the chosen entry by its label. 1

a: O=S1(=O)C[C@H](NC2CCCCC2)[C@@H](S(=O)(=O)c2ccc(Cl)cc2)C1 [Compound D124]
b: CC(=O)N1CCN([C@H]2CS(=O)(=O)C[C@@H]2S(=O)(=O)c2ccc(F)c(C)c2)CC1 [Compound D116]
c: COCCN[C@H]1CS(=O)(=O)C[C@@H]1S(=O)(=O)c1cccs1 [Compound D107]
d: CC(C)CN[C@H]1CS(=O)(=O)C[C@@H]1S(=O)(=O)c1ccc(Cl)cc1 [Compound D120]
Sequence the entries by Firefly, F4, 1% FBS, cmpd/DMSO (mean), beginning with the highest number. Sort the labels as requested; that list is your answer. d, a, c, b
